# reported Kd; entries follow
target: T1, human PCSK9 (proprotein convertase subtilisin/kexin type 9), His-tagged, full-length (human, UniProt A8T644 31-152; Q8NBP7 153-692, limits assumed); test: SPR, Biacore T100, His-tagged protein captured on NTA chip (Method 1)
T1 construct: The secreted protein is the prodomain plus the catalytic/Cys-rich part (N-terminus S153) after autocleavage; also called His-PCSK9; NARC-1
T1 sequence (A8T644 31-152 limits assumed, chain 1 of 2): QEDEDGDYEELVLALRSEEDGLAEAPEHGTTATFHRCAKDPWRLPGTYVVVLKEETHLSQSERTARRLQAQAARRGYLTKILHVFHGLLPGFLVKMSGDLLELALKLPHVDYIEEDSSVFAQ
T1 sequence (A8T644 other isoform, or with tags, fused parts or gaps limits assumed, chain 2 of 2): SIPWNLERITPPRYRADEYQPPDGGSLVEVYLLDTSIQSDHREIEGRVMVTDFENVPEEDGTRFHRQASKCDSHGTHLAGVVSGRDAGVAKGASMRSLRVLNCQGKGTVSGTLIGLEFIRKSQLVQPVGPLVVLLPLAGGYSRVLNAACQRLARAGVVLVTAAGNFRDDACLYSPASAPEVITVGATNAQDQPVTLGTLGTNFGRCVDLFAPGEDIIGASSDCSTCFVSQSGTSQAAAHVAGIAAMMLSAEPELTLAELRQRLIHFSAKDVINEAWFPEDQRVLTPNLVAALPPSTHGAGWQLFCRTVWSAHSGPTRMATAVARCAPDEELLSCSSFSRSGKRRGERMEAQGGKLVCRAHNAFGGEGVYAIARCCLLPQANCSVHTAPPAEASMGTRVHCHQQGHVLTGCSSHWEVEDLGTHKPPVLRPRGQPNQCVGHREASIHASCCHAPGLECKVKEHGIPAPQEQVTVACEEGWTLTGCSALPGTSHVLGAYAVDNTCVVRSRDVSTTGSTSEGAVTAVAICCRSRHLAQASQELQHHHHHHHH
Bridge positions count the residues as written; N and C are the ends.
Please give a number only; it is taken to be in µM.

Sample answers from the record:
{"columns": ["binder", "Kd, µM"],
 "data": [
  ["Ac-TVFTSWEEYLDWVGSGDLMPWNLVRIGLLR-NH2 (also called Pep2-8p7; Pep2-8_K9gvpep7) [Compound 20]", 0.00556],
  ["SGDLMPWNLVRIGLLR (Printed without N-terminal cap and without C-terminal amide) [Compound 28]", 46.1],
  ["H-SGCFIPWNLQRIGLLC-NH2 (disulfide 3-16 (inferred)) [Compound 26]", 29]
]}

Now turn to the next binder.
Prompt line: Consider the binder Ac-TVFTSWEEYLDWVGSGCRLPWNLQRIGLPC-NH2 (disulfide 17-30 (inferred), also called Pep2-8p4; Pep2-8_K9gvpep4) [Compound 19] and give its measured Kd.
Response line: 0.00207
